Where these numbers come from: PubChem BioAssay (NCI)

Listed molecules paired with reported growth
Test system: COLO 205 colon
Experiment: NCI-60 one-dose screen, 48 h (100 = growth as untreated, 0 = no growth, -100 = all killed)
Details: 10 µM unless noted
This is part of a sample that, as a whole, favours compounds with a hit. Of some 83,000 tested, about 20% had one in any assay.
readout name: growth (%)

CC(=O)c1c(/C=C/c2ccc(C)cc2)c2ccccc2[nH]c1=O    105
COc1cc2nc3cc([N+](=O)[O-])ccc3c(NCCCNCCO)c2cc1OC    -76.2
O=C1CC2C=CCN2C=C1NC(=O)c1ccccc1 (stereo unspecified)    102
COc1ccc(-c2csc(NC(=O)CSc3nc(C)cc(=O)[nH]3)n2)cc1    116
O=C(O)c1nn(-c2ccc(Cl)cc2)nc1N1CCCC1    111
CC(C)(C)n1cc(-c2ccnc(NCCNS(=O)(=O)c3ccc(C(F)(F)F)cc3)c2)c(-c2ccccc2)n1    87.3
O=c1n(C2OC(CO)C(O)C2O)ccc2nccn12 (stereo unspecified)    126
CN(CCNc1ccc(C(=N)N)cc1)c1ccc(C(=N)N)cc1    135
CCCCC1=C(Br)C(=O)c2ncccc2C1=O    -6.16
NCCNc1ccc([N+](=O)[O-])cc1    120
COc1ccc(C(=O)C2OC3=C(C(=O)CC(C)(C)C3)C2c2cccc(Oc3ccccc3)c2)cc1 (stereo unspecified)    110

----------
System: T-47D breast
Assay: NCI-60 one-dose screen, 48 h (100 = growth as untreated, 0 = no growth, -100 = all killed)
Conditions: 10 µM unless noted
Compounds without any hit were thinned out: in the full panel of roughly 83,000, 20% have a hit.
Recorded growth values for a group of molecules are listed next.
readout name: growth (%)

CC(C)c1nc(N(C)S(C)(=O)=O)nc(-c2ccc(F)cc2)c1/C=C/C(=O)C[C@@H](O)CC(=O)O    101
CC(C)n1nc(-c2ccc3oc(N)nc3c2)c2c(N)ncnc21    -36
O=C(O)COc1ccc(F)cc1    104
CCOC(=O)/C(=C\c1ccccc1Cl)P(=O)(OCC)OCC    39.5
CCCCC#Cc1c(I)n(C2OC(CO[Si](C)(C)C(C)(C)C)C3OC(C)(C)OC32)c(=O)[nH]c1=O (centres undefined)    12.3
Cc1ccc(C(F)(F)F)cc1N1CCN(C(=O)[C@H]2C[C@H]2c2ccc(C(F)(F)F)nc2)CC1    68.4
COc1cc(CNC(=O)CCCC/C=C/C(C)C)ccc1OCc1cn(-c2cccc([N+](=O)[O-])c2)nn1    72.3
CC1=C2[C@@H](CC1)[C@]1(C)O[C@@](C(C)C)(C[C@H]1OC(=O)CO)[C@H]2OC(=O)CCCc1ccccc1    25.3
COc1cc(/C=C/c2cc(/C=C/c3ccc(O)c(OC)c3)n(C(=O)Nc3ccc(C)cc3C)n2)ccc1O    -22.5
O=C1/C(=C/c2ccc(Br)cc2)COc2ccc(O)cc21    80.6
O=C(Nc1ncc(Cc2ccc(Cl)cc2)s1)C1=NCCCCN1    92.5
Cn1cc(-c2nc(-c3c[nH]c4c(Cl)nccc34)cs2)c2ccccc21    87.1
CC(C)(C)[C@H](OCc1cn([C@H]2C[C@@H](O)[C@@H](CO)O2)c(=O)[nH]c1=O)c1ccc(C#Cc2ccccc2)cc1[N+](=O)[O-]    53.6
COc1cc2cc(Oc3ccc(NC(=O)Nc4ccc(Cl)c(Cl)c4)cc3)c(C)nc2cc1OCCN1CCCCC1    85.9
CCCCCC(C)(O)C(C(=O)O)c1ccccc1 (centres undefined)    106
CN1CCN(Cc2ccc(NC(=O)c3cncc(C#Cc4c(N)ncc5cc(F)ccc45)c3)cc2C(F)(F)F)CC1    77
CCOC(=O)CC1CSC(N/N=C/c2ccc(O)cc2)=N1 (centres undefined)    93.2
CC1=C([Se]CC(OC(=O)[C@@H](CO)NC(=O)OC(C)(C)C)C(=O)NCCCCCC(=O)OCc2ccccc2)C(=O)c2ccccc2C1=O (some centres undefined)    -94.3
CC/C(=C(/c1ccc(Cl)cc1)c1ccc(OCCCN(C)C)cc1)c1ccc(OC)cc1    51.1

----------
Tested on: SN12C renal
Assay: NCI-60 one-dose screen, 48 h
Details: 10 µM unless noted
This is part of a sample that, as a whole, favours compounds with a hit. Of some 83,000 tested, about 20% had one in any assay. Activity calls are given as the source filed them. The calls were made as follows: active = growth percent below 10; inactive = the rest.
Possible outcomes: active, inactive

CNc1nc2ncc(-c3c(C)noc3C)cc2n1Cc1ccccc1    inactive
Oc1c(Cl)cc(Cl)c2ccc(CN3CCNCC3)nc12    inactive
COc1cccc(/C=C/C(=O)/C=C(/C=C/c2cccc(OC)c2OC)OB(F)F)c1OC    inactive
COc1cc2c(cc1-c1c(C)noc1C)ncc1nc(C3CCOCC3)n(C3CCC(OC(F)F)CC3)c12 (stereo not given)    inactive
N#CC1=C(N)Oc2c(ccc3cccnc23)C1c1ccccc1 (stereo not given)    inactive
O=S(=O)(Nc1ccc(Br)cc1)c1ccc(-c2cnc(C3CC3)o2)cc1    inactive
CC1=C(C(=O)c2ccccc2)C(c2ccc3c(c2)OCO3)NC(=S)N1 (stereo not given)    inactive
CS(=O)(=O)Nc1cc(-c2ccc3ncnc(Nc4cccc(Cl)c4)c3c2)cnc1Cl    inactive
CCOC(=O)c1cc(C(=O)c2cc(OC)cc(OC)c2)n2ncccc12    inactive
COc1ccc(C2=NN(C=O)C(c3ccc(Oc4nc5c(c(=O)n(C)c(=O)n5C)n4C)c(OC)c3)C2)cc1 (stereo not given)    inactive
Nc1cc(-c2ccc(Cl)cc2)nn1-c1nc(-c2ccc(Br)cc2)cs1    inactive
COc1cc(C(=O)n2nc(NCCCc3ccccc3)c3cc(N)ccc32)cc(OC)c1OC    inactive
COc1ccc(Nc2nc(Nc3cc(C)[nH]n3)c3cc(OC)c(OC)cc3n2)cc1    active
Cn1cc(-c2ccc3occ(-c4cccc(-c5ccncc5)c4)c3n2)cn1    inactive
CCN(CC)CCCNC(=O)c1c2c(n3ccccc13)C(=O)c1ncccc1C2=O    active
CCCCCCCC/C=C\CCCCCCCCOc1ccc(CC(=O)NCC[N+]2(C)CCCC2)cc1    inactive
O=C(CSc1nnc(-c2ccc(Cl)c(Cl)c2)n1-c1ccccc1)Nc1ccc(C(=O)/C=C/c2ccc(Cl)cc2)cc1    inactive
C=C1/C(=C\C=C2/CCC[C@]3(C)[C@@H]([C@H](C)CCCC(C)(C)O)CC[C@@H]23)C[C@@H](OC(=O)CBr)C[C@@H]1O    inactive
CN(C)c1ccc(/C=N/NC(=O)CSc2nc3sc4c(c3c(=O)n2-c2ccccc2)CCCCC4)cc1    inactive
CC/C(=C(/c1ccc(Cl)cc1)c1ccc(OCCN(CC)CC)cc1)c1ccc(OC)cc1    inactive

----------
Test system: HCT-116 colon
Experiment: NCI-60 one-dose screen, 48 h (100 = growth as untreated, 0 = no growth, -100 = all killed)
Conditions: 10 µM unless noted
This is part of a sample that, as a whole, favours compounds with a hit. Of some 83,000 tested, about 20% had one in any assay. The source made the active and inactive calls. How the source made its calls: active means growth percent below 10; inactive means the rest.
readout name: growth

COC(=O)c1c(C)nc(C)c2c1C(=O)C(Br)=C(NCCN1CCOCC1)C2=O    67.4% (inactive)
COc1ccc(CNc2c3ccccc3nc3ccccc23)cc1OC    12.2% (inactive)
Nc1ncc(-c2ccc3ncnc(N4CCc5cc(F)c(Cl)cc54)c3c2)cn1    46.9% (inactive)
Nc1ncnc2c1N=C(c1ccc([N+](=O)[O-])cc1)CC(c1ccc3c(c1)OCO3)N2 (stereo not given)    83.3% (inactive)
Cn1cc(-c2nc(-c3c[nH]c4ccncc34)cs2)c2cc(F)ccc21    -95.4% (active)
O=C(Nc1ccc2c(c1)-c1ccccc1C2)C1CC(=O)N(c2ccc3c(c2)OCO3)C1 (stereo not given)    36.8% [50 µM] (inactive)
COc1ccc(NC(=O)c2ccc(NC3=C(c4ccc(Cl)cc4)C(=O)NC3=O)cc2)cc1    88.9% (inactive)
N#CC1=C(N)Oc2c(ccc3cccnc23)C1c1ccccc1 (stereo not given)    22.2% (inactive)
CCOC(=O)c1ccc2c(c1)c1c(C)c3cnccc3c(C)c1n2C    -85.2% (active)
COc1ccc(/C=C2/CCc3cc4ccc(OC)cc4[o+]c32)c(O)c1    -64.1% (active)

----------
Each entry below lists one item and its recorded growth value.
System: PC-3 prostate
Test: NCI-60 one-dose screen, 48 h (100 = growth as untreated, 0 = no growth, -100 = all killed)
Settings: 10 µM unless noted
About 83,000 compounds went through this panel and 20% of them were active in at least one assay; those are over-represented in the sample as a whole.
readout name: growth (%)

O=C(/C=C/C12c3ccccc3C(c3ccccc31)C1C(=O)NC(=O)C12)c1cccs1 (centres undefined)    33.6
CCN1CCN(c2cc(C(=O)Nc3cccc(Nc4ccc5c(OC)cccc5n4)c3)cc(C(F)(F)F)c2)CC1    7.66
CC(=O)c1c(/C=C/c2ccc(C)cc2)c2ccccc2[nH]c1=O    81.2
COc1cc(C2=Nc3c(N)nc(N)nc3NC(c3cccc(Nc4ccnc5cc(C(F)(F)F)ccc45)c3)C2)cc(OC)c1OC (centres undefined)    58.5
COc1cc(OC)cc(C(=O)Nc2cnc(Nc3ccc(N4CCOCC4)nc3)nc2Oc2ccc(C(F)(F)F)cc2)c1    71.4
COc1cc(C)cc(-c2c(-c3cc(N4CC(O)C4)nc(-c4cccnc4)n3)cnn2C)c1    82.5
Cc1ccc(S(=O)(=O)N(CCC(=O)O)c2ccccc2)cc1    101
Cc1cccc(CN(Nc2ccccc2)c2ccccc2)n1    85.7
Nc1ncc(-c2ccc3ncnc(N4CCc5ccc(Cl)cc54)c3c2)cn1    8.82
